- tested-system: human Y4 receptor (Homo sapiens)
- Construct: expressed in transfected cells
- Sequence (P50391 whole entry): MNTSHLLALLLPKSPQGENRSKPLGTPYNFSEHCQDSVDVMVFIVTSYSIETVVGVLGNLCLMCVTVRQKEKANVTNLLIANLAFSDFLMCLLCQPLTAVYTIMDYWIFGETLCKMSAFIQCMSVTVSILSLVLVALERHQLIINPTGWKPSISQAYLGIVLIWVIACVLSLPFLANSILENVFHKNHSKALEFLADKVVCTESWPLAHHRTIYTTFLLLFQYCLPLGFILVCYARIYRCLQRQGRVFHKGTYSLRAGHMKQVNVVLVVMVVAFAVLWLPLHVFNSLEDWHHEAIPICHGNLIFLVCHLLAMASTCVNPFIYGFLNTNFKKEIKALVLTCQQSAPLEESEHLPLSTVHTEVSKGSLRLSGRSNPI
- protocol-text: NPY4 cAMP HTRF Agonist Assay (inhibitory cAMP assay, Gi activation by Y4 agonism)
- Assay type: cell-based
- measurement-context: human Y4 receptor, cAMP; read-out: hY4 CAMP EC50
assay-metric: pEC50
// field semantics: pEC50 = negative decimal log of concentration (mol/L)

Solved cases below.
{"compound": "Cc1nc(-c2ccc(N3CCC[C@H](N[C@@H]4CCCC[C@H]4Nc4cc(-c5ccc(F)c(F)c5)ccn4)C3)cc2)no1 [Example 342]", "observed-measurement": 8.10}
{"compound": "N#Cc1cnc(N2C[C@@H]3C[C@H](N[C@@H]4CCCC[C@H]4Nc4ncc(-c5ccc(OC(F)(F)F)cc5)o4)[C@H]2C3)nc1 [Example 440]", "observed-measurement": 7.82}

Proceeding to the next compound to report its pEC50.
Answer with the recorded pEC50 for the compound listed here: NC(=O)c1cc(-c2cnc(N[C@@H]3CCCC[C@H]3N[C@H]3CCCN(c4cnc(C(F)(F)F)nc4)C3)o2)ccn1 [Example 425]
7.82
